These measurements were taken from patent US20200347127A1.

system under test: recombinant human IL-17A (human, UniProt Q16552 24-155)
Sequence (Q16552 24-155): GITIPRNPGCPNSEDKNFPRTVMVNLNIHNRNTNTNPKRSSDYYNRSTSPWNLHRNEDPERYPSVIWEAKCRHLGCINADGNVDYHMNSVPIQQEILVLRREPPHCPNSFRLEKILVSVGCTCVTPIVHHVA
assay comment: cell-based or functional assay
value kind: Cell assay IC50 (nM), IL-17A-induced IL6 release from HT1080

Clone 1.14 (VHH, Human single VH domain) VHH: EVQLVESGGGLVQRGGSLRLSCAASGFTFSSYRMYWVRQAPGKGLEWVASIEQDGSEEYYVDSVKGRFTISRDNAKKSLFLQMNSLRAEDTAVYYCAKGEILPLYFDYWGQGTLVTVSS : 2.9 nM
Clone 1.8 (VHH, Human single VH domain) VHH: QVQLVESGGGLVQPGGSLRLSCAASGFTFSSYGMYWVRQAPGKGLEWVAKIEQDGSEKYYVDSVKGRFTISRDNAKNSLFLQMNSLRAEDTAVYYCAKGEILPLYFDYWGQGTLVTVSS : 1.2 nM
VH 1.1.1 (clone 1.1 expressed from phagemid vector: with linker residues and His tag) (VHH, Human single VH domain; also called Family 1 (clone 1.1)) VHH: EVQLVESGGGLVQPGGSLRLSCAASGFTFSSYSMYWVRQAPGKGLEWVANIKQDGSEKYYVDSVKGRFTISRDNAKNSLFLQMNSLRAEDTAVYYCAKGEILPLHFDYWGQGTLVTVSS : 13 nM
VH 1.21.1 (clone 1.21 expressed from phagemid vector: with linker residues and His tag) (VHH, Human single VH domain) VHH: EVQLVESGGGLVLPGGSLRLSCAASGFTFSSYSMYWVRQAPGKGLEWVAEIKQDGSEQYYVDSVKGRFTISRDNAKNSLYLQMNSLRAEDTAVYYCAKGEILPLYFDYWGQGTLVTVSS : 2.05 nM
Clone 1.12 (VHH, Human single VH domain) VHH: QVQLVESGGGLVQPGGSLRLSCAASGFTFSSYGMYWVRQAPGKGLEWVAKIEQDGSEEYYVDSVKGRFTISRDNAKNSLYLQMNSLRAEDTAVYYCAKGEILPLYFDYWGQGTLVTVSS : 1.4 nM
VH 1.19.1 (clone 1.19 expressed from phagemid vector: with linker residues and His tag) (VHH, Human single VH domain) VHH: EVQLVESGGGLVQPGGSLRLSCATSGFTFSSYGMYWVRQAPGKGLEWVAEIKQDGSEKYYVDSVKGRFTISRDNAKNSLYLQMNSLRAEDTAVYYCAKGEILPLYFDYWGQGTLVTVSS : 1.2 nM
VH 1.20.1 (clone 1.20 expressed from phagemid vector: with linker residues and His tag) (VHH, Human single VH domain) VHH: EVQLVESGGGLVQPGGSLRLSCAASGFTFSSYGMYWVRQAPGKGLEWVAKIEQDGSEEYYADSVKGRFTISRDNAKKSLYLQMNSLRAEDTAVYYCAKGEILPLYFDYWGQGTLVTVSS : 2.03 nM
Clone 1.22 (VHH, Human single VH domain) VHH: EVQLVESGGGLVRPGGSLRLSCAASGFTFSSYGMYWVRQAPGKGLEWVAKIEQDGSEEYYVDSVKGRFTISRDNAKKSLYLQMNSLRAEDTAVYYCAKGEILPLYFDYWGQGTLVTVSS : 3.25 nM
VH 1.17.1 (clone 1.17 expressed from phagemid vector: with linker residues and His tag) (VHH, Human single VH domain) VHH: EVQLVESGGGLVQPGGSLRLSCAASGFTFSSYSMYWVRQAPGKGLEWVAEIKPTGSVQYYVSDVKGRFTISRDNAKNSLYLQMNSLRAEDTAVYYCAKGEILPLYFDYWGQGTLVTVSS : 1.91 nM
Clone 1.13 (VHH, Human single VH domain) VHH: EVQLVESGGGLVQPGGSLRLSCAASGFTFSSYGMYWVRQAPGKGLEWVASIEQDGSEKYYVDSVKGRFTISRDNAKNSLYLQMNSLRAEDTAVYYCAKGEILPLYFDYWGQGTLVTVSS : 1.2 nM
Clone 1.11 (VHH, Human single VH domain) VHH: EVQLVESGGGLVQPGGSLRLSCAASGFTFSSYQMYWVRQAPGKGLEWVASIKQDGSEEYYVDSVKGRFTISRDNAKNSLFLQMNSLRAEDTAVYYCAKGEILPLYFDYWGQGTLVTVSS : 1.5 nM
Clone 1.15 (VHH, Human single VH domain) VHH: EVQLVESGGGLVQPGGSLRLSCAASGFTFSSYSMYWVRQAPGKGLEWVAEIRQDGSEQYYVDSVKGRFTISRDNAKNSLYLQMNSLRAEDTAVYYCAKGEILPLYFDYWGQGTLVTVSS : 2.5 nM
Clone 1.9 (VHH, Human single VH domain) VHH: QVQLVESGGGLVQPGGSLRLSCAASGFTFSSYGMYWVRQAPGKGLEWVAEIKQDGSEKYYVDSVKGRFTISRDNAKNSLYLQMNSLRAEDTAVYYCAKGEILPLYFDYWGQGTLVTVSS : 2.4 nM
VH 1.16.1 (clone 1.16 expressed from phagemid vector: with linker residues and His tag) (VHH, Human single VH domain) VHH: EVQLVESGGGLVQPGGSLRLSCAASGFTFSSYSMYWVRQAPGKGLEWVAEIKQDGSEQYYVDSVKGRFTISRDNAKNSLYLQMNGLRAEDTAVYYCAKGEILPLYFDYWGQGTLVTVSS : 1.4 nM
VH 1.10.1 (clone 1.10 expressed from phagemid vector: with linker residues and His tag) (VHH, Human single VH domain) VHH: EVQLVESGGGLVQPGGSLRLSCAASGFTFSSYRMYWVRQAPGKGLEWVASIEQDGSEEYYVDSVKGRFTISRDNAKKSLFLQMNSLRAEDTAVYYCAKGEILPLYFDYWGQGTLVTVSS : 1.9 nM
